The measured values listed here are drawn from PubChem BioAssay.

# target_entity: Torsin-1A-interacting protein 1 (Homo sapiens) (UniProt Q5JTV8)
# Sequence (Q5JTV8 whole entry, looked up): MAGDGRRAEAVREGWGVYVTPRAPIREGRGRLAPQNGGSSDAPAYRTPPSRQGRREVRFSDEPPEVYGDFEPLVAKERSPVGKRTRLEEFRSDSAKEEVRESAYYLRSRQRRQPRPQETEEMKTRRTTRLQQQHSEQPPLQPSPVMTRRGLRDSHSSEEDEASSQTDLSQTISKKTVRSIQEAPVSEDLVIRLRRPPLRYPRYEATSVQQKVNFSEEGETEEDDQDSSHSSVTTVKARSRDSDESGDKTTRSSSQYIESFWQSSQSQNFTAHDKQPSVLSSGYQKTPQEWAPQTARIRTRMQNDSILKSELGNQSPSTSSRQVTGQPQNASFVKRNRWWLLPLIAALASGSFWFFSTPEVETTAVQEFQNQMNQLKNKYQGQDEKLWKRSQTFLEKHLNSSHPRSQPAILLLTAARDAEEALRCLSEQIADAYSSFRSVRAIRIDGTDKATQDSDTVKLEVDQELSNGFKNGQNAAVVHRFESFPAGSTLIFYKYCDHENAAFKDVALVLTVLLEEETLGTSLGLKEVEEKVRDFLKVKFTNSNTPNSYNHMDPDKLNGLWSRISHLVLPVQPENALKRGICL
# protocol: LAP1 binders from COS7 cell lysate, primary screen, small-molecule microarray, 635/667 nm fluorescence (AID 1116)
# conditions_used: COS7-hLAP1 lysate binding, 635 nm fluorescence, higher = more signal
reported_metric: composite z-score

• CCN1C(=O)[C@H]2[C@H]3[C@H](O)[C@H](O)CC(=NNC(=O)OCc4ccc(OC)cc4)[C@@H]3CC[C@H]2C1=O = -0.717
• CCCNC(=O)OC[C@H]1O[C@H](c2ccccc2)C=C[C@@H]1Oc1ccc(OC)cc1 = 0.124
• CC(C)CON=C1C[C@@H](O)[C@@H](O)[C@@H]2[C@@H]3C(=O)N(Cc4ccc5c(c4)OCO5)C(=O)[C@@H]3CC[C@H]12 = 0.54
• CC(C)=CCCC(C)=CCON=C1C[C@@H](O)[C@@H](O)[C@@H]2[C@@H]3C(=O)N(C4CCCCC4)C(=O)[C@@H]3CC[C@@H]12 = 0.259
• O=C(NN=C1C[C@@H](O)[C@@H](O)[C@@H]2[C@@H]3C(=O)N(Cc4ccccc4)C(=O)[C@@H]3CC[C@@H]12)OCc1ccccc1 = -0.0694

Please find the next compound below.
Ask: If you can, please state the reported composite z-score value of COc1ccc(COC(=O)NN=C2C[C@@H](O)[C@@H](O)[C@@H]3[C@@H]4C(=O)N(c5cccc(Oc6ccccc6)c5)C(=O)[C@@H]4CC[C@@H]23)cc1 .
Result: 0.326
